The measurements presented in this section are drawn from patent US8198447B2.

pIC50: −log10 of the molar value.
As an illustration, consider measured pIC50 for molecules on Aldose reductase II (Homo sapiens).
VALUE_TYPE: pIC50

P. COc1ccc2c(c1)c1c(n2CC(=O)O)C(=O)SCC1
Q. O=C(O)Cn1c2c(c3ccccc31)CCN(Cc1ccccc1)C2=S
R. O=C(O)Cn1c2c(c3ccccc31)CCN(C(=O)c1cc(O)c(O)c(O)c1)C2=O
# rank_down: sort by pIC50, max first Record the ranking as a list of labels in the requested order. P, Q, R

1. O=C(O)Cn1c2c(c3c(Cl)cccc31)CCSC2=O
2. O=C(O)Cn1c2c(c3ccccc31)CCN(C(=O)c1cc(F)cc(F)c1)C2=O
3. O=C(O)Cn1c2c(c3cc(Cl)ccc31)CCOC2=S
4. CC(C)(C)c1ccc2c(c1)c1c(n2CC(=O)O)C(=O)SCC1
Task field, ranking: reported pIC50, descending order. # the answer lists labels in the order requested 4, 1, 3, 2

1. O=C(O)Cn1c2c(c3cc4c(cc31)CCCC4)CCSC2=O
2. O=C(O)Cn1c2c(c3cc(C4CCCCC4)ccc31)CCSC2=O
// max by pIC50 over [ 1 , 2 ] Response format: the label of the selected entry. 1
(1: 5.47, 2: 5.25)
